- System name: PRMT5 (Homo sapiens, UniProt O14744)
- Construct: purchased Viva (custom protein)
- Sequence (O14744 whole entry): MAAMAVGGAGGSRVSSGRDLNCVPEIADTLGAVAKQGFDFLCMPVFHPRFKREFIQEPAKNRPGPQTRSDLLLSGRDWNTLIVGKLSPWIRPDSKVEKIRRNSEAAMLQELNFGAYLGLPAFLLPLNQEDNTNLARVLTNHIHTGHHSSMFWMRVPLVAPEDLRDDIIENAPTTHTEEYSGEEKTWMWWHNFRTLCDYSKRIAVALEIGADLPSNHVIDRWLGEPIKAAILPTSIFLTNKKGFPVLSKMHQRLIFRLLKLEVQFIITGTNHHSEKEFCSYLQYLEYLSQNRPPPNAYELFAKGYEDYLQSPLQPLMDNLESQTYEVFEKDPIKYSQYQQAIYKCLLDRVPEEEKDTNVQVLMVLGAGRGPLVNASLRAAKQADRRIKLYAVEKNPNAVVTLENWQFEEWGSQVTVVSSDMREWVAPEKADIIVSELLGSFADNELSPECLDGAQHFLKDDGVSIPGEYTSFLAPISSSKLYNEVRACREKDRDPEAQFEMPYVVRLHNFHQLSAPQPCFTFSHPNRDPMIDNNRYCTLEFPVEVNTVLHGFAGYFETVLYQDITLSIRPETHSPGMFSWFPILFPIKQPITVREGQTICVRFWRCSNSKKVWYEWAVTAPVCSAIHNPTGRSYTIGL
- Sequence (Q9BQA1 whole entry partner): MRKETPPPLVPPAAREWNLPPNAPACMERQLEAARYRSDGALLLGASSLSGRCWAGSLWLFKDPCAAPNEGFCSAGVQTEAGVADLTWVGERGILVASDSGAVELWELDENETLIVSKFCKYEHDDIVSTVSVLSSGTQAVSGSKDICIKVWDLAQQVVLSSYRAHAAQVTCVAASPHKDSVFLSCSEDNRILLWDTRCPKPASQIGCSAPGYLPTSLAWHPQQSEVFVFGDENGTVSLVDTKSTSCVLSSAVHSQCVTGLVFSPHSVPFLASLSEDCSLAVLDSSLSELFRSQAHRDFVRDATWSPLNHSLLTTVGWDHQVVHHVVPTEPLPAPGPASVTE
- Protocol description: PRMT5 biochemical IC50 assay with no cofactor
- Test conditions: PRMT5, no cofactor; read-out: No Cofactor/rel IC50
Parameter measured: IC50

                                    compound  parameter_measured        result
 0  C[C@@H]1CC[C@@H](c2ccc3sccc3c2)N(C(=O)C(=O)Nc2cncc(C(N)=O)c2)C1 (single isomer, unassigned) [Compound 586]                IC50      > 500 nM
 1  Cc1cc(NC(=O)C(=O)N2C[C@H](C)CC[C@H]2c2ccc(-c3nccs3)cn2)cnc1N (racemic)                IC50  50 to 500 nM
 2  Cc1cccc2cc([C@@H]3CC[C@@H](C)CN3C(=O)C(=O)Nc3cncc(C(N)=O)c3)cnc12 (racemic)                IC50      > 500 nM
 3  C[C@@H]1CC[C@@H]2CCCC[C@@H]2N1C(=O)C(=O)Nc1cncc(C(N)=O)c1 (single isomer, unassigned)                IC50      > 500 nM
 4  Cc1ncc(NC(=O)C(=O)N2C[C@H](C)CC[C@H]2c2ccc3c(c2)CCC(=O)N3)cc1Cl (racemic) [Compound 639]                IC50  50 to 500 nM
 5  N#C[C@H]1CCN(C(=O)C(=O)Nc2cncc(C(N)=O)c2)[C@@H](c2ccccc2)C1 (single isomer, unassigned)                IC50  50 to 500 nM
 6  Cc1cc(NC(=O)C(=O)N2C[C@H](C)C[C@@H](C)[C@H]2c2ccccc2)cnc1N (single isomer, unassigned)                IC50  50 to 500 nM
 7  Cc1cc(NC(=O)C(=O)N2C[C@H](C)CC[C@H]2c2ccc3sc(C(F)(F)F)nc3c2)cnc1N (racemic) [Compound 861]                IC50  50 to 500 nM
 8  Cc1ccc([C@H]2CC[C@H](C)CN2C(=O)C(=O)Nc2cncc(C(N)=O)c2)cc1Cl (single isomer, unassigned)                IC50  50 to 500 nM
 9  C[C@@H]1CC[C@@H](c2cccc(C(F)(F)F)c2)N(C(=O)C(=O)Nc2cncc(C(N)=O)c2)C1 (single isomer, unassigned) [Compound 510]                IC50      > 500 nM
10  COc1ncc(NC(=O)C(=O)N2C[C@@H](C)CC[C@@H]2c2ccc3nn([C@@H]4CCN(C)C4)cc3c2)cc1C(N)=O (racemic)                IC50       < 50 nM
11  C[C@@H]1CC[C@@H](c2ccc(O)c(F)c2)N(C(=O)C(=O)Nc2cncc(C(N)=O)c2)C1 (single isomer, unassigned)                IC50      > 500 nM
12  CNS(=O)(=O)c1cccc([C@@H]2CC[C@@H](C)CN2C(=O)C(=O)Nc2cnc(N)c(C)c2)c1 (racemic)                IC50  50 to 500 nM

* * *

- System name: PRMT5 (Homo sapiens)
- Construct: purchased Viva (custom protein)
- Protocol description: PRMT5 biochemical IC50 assay with no cofactor
- Test conditions: PRMT5, no cofactor; read-out: No Cofactor/rel IC50
The reader will find reported IC50 values listed item by item below.
Parameter measured: IC50

In [3]: df
Out[3]:
                                    compound           system_name        result
 0  CCc1cc(NC(=O)C(=O)N2C[C@@H](C)CC[C@@H]2c2cccc3[nH]ncc23)cnc1N (single isomer, unassigned)  PRMT5 (Homo sapiens)       < 50 nM
 1  CC(=O)Nc1ccc([C@H]2CC[C@H](C)CN2C(=O)C(=O)Nc2cnc(N)c(C)c2)cc1 (single isomer, unassigned)  PRMT5 (Homo sapiens)      > 500 nM
 2  COc1ccc([C@@H]2CC[C@@H](C)CN2C(=O)C(=O)Nc2cncc(C(N)=O)c2)cc1 (racemic)  PRMT5 (Homo sapiens)  50 to 500 nM
 3  COc1ncc(NC(=O)C(=O)N2C[C@@H](C)C(F)(F)C[C@@H]2c2ccc(C)nc2)cc1C(N)=O (single isomer, unassigned)  PRMT5 (Homo sapiens)  50 to 500 nM
 4  COc1ncc(NC(=O)C(=O)N2C[C@@H](C)CC[C@@H]2c2ccc(NS(C)(=O)=O)cc2)cc1C(N)=O (single isomer, unassigned)  PRMT5 (Homo sapiens)      > 500 nM
 5  Cc1cc(NC(=O)C(=O)N2C[C@H](C)CC[C@H]2c2ccc3c(c2)C(=O)NC3)cnc1N (racemic) [Compound 582]  PRMT5 (Homo sapiens)  50 to 500 nM
 6  Cc1cncc(NC(=O)C(=O)N2C[C@@H](C)CC[C@H]2c2cccc(F)c2)c1 (single isomer, unassigned)  PRMT5 (Homo sapiens)      > 500 nM
 7  Cc1cc(NC(=O)C(=O)N2C[C@H](C)CC[C@H]2c2ccc(NS(C)(=O)=O)nc2)cnc1N (single isomer, unassigned)  PRMT5 (Homo sapiens)  50 to 500 nM
 8  CNC(=O)c1ccc([C@@H]2CC[C@@H](C)CN2C(=O)C(=O)Nc2cnc(N)c(C)c2)s1 (single isomer, unassigned)  PRMT5 (Homo sapiens)      > 500 nM
 9  C[C@@H]1CCN(C(=O)C(=O)Nc2cncc(C(N)=O)c2)[C@H](c2ccccc2)C1 (racemic)  PRMT5 (Homo sapiens)  50 to 500 nM
10  C[C@@H]1CC[C@@H](c2ccc3c(c2)C[C@H](C)O3)N(C(=O)C(=O)Nc2cncc(C(N)=O)c2)C1 (single isomer, unassigned)  PRMT5 (Homo sapiens)  50 to 500 nM
11  Cc1cc(NC(=O)C(=O)N2C[C@H](C)C(F)(F)C[C@H]2c2ccccc2)cnc1N (single isomer, unassigned)  PRMT5 (Homo sapiens)       < 50 nM
12  C[C@@H]1CC[C@@H](c2ccc(F)cc2)N(C(=O)C(=O)Nc2cnc(N)c(C(F)F)c2)C1 (racemic)  PRMT5 (Homo sapiens)  50 to 500 nM

* * *

This section presents molecules with their documented IC50 values.
- Tested on: HAP1 MTAP-deleted cell line
- Protocol description: SDMA in-cell western assay, HAP1 MTAP-deleted
- Type: cell-based
- Test conditions: Homo sapiens, HAP1, SDMA in-cell western, HAP1 MTAP-deleted; read-out: HAP 1 MTAP deleted IC50
Parameter measured: IC50

>>> print(df.to_string())
                                   molecule          result
0  Cc1cc(NC(=O)C(=O)N2CCCCC2c2cccc3[nH]cnc23)cnc1N (stereo not drawn)       > 1000 nM
1  C[C@@H]1CC[C@@H](c2ccnn2C)N(C(=O)C(=O)Nc2cncc(C(N)=O)c2)C1 (racemic)  100 to 1000 nM
2  CC(C)c1cc([C@@H]2CC[C@@H](C)CN2C(=O)C(=O)Nc2cncc(C(N)=O)c2)ccc1O (racemic)        < 100 nM
3  COc1ncc(NC(=O)C(=O)N2C[C@H](C)CC[C@H]2c2ccc3nn(C)cc3c2)cc1C(N)=O (single isomer, unassigned)       > 1000 nM
4  Cc1cc(NC(=O)C(=O)N2C[C@H](C)CC[C@H]2c2ccc3c(=O)[nH]ccc3c2)cnc1N (single isomer, unassigned)  100 to 1000 nM
5  CCc1cc(NC(=O)C(=O)N2C[C@@H](C)CC[C@@H]2c2ccc3nn([C@@H]4CCCN(C)C4)cc3c2)cnc1N (single isomer, unassigned)        < 100 nM

* * *

- System name: PRMT5 (Homo sapiens, UniProt O14744)
- Construct: purchased Viva (custom protein)
- Protocol description: PRMT5 biochemical IC50 assay with no cofactor
- Test conditions: PRMT5, no cofactor; read-out: No Cofactor/rel IC50
pIC50: −log10 of the molar value.
Parameter measured: pIC50

>>> print(df.to_string())
                                    compound        result
 0  C[C@H]1CC[C@H](c2ccc(NS(C)(=O)=O)cc2)N(C(=O)C(=O)Nc2cncc(C(N)=O)c2)C1 (single isomer, unassigned) [Compound 462]  6.30 to 7.30
 1  Cc1ncc(NC(=O)C(=O)N2C[C@H](C)CC[C@H]2c2ccc3c(c2)CCC(=O)N3)cc1C(F)F (single isomer, unassigned) [Compound 874]  6.30 to 7.30
 2  CNc1ccc([C@@H]2CC(F)(F)[C@@H](C)CN2C(=O)C(=O)Nc2cnc(N)c(C)c2)cn1 (racemic) [Compound 1054]  6.30 to 7.30
 3  Cc1cc(NC(=O)C(=O)N2C[C@@H](C)CC[C@@H]2c2cccc(N(C)C)c2)cnc1N (single isomer, unassigned) [Compound 387]        < 6.30
 4  CCc1cc(NC(=O)C(=O)N2C[C@@H](C)CC[C@@H]2c2ccc3sc(C4(CN(C)C)COC4)nc3c2)cnc1N [Compound 1165]        > 7.30
 5  CCc1cc(NC(=O)C(=O)N2C[C@@H](C)CC[C@@H]2c2ccc(-c3nccs3)cc2)cnc1N (single isomer, unassigned) [Compound 822]        < 6.30
 6  COc1ncc(NC(=O)C(=O)N2CCCCC2C2CCCCC2)cc1C(N)=O (single isomer, unassigned) [Compound 317]        < 6.30
 7  COc1ncc(NC(=O)C(=O)N2C[C@@H](C)C(F)(F)C[C@@H]2c2ccc(F)cc2)cc1C(N)=O (single isomer, unassigned) [Compound 1047]        < 6.30
 8  COc1cc([C@@H]2CC[C@@H](C)CN2C(=O)C(=O)Nc2cncc(C(N)=O)c2)ccn1 (single isomer, unassigned) [Compound 532]        > 7.30
 9  Cc1cc(NC(=O)C(=O)N2C[C@@H](C)CC[C@@H]2c2ccc3sc(C4CCN(C5CC5)CC4)nc3c2)cnc1N [Compound 1181]        > 7.30
10  C[C@@H]1CC[C@@H](c2ccccn2)N(C(=O)C(=O)Nc2cncc(C(N)=O)c2)C1 (single isomer, unassigned) [Compound 578]        < 6.30
11  C[C@@H]1CC[C@@H](c2ccc(NS(C)(=O)=O)nc2)N(C(=O)C(=O)Nc2cncc(C(N)=O)c2)C1 (single isomer, unassigned) [Compound 1003]  6.30 to 7.30
12  Cc1cc(NC(=O)C(=O)N2C[C@H](C)CC[C@H]2c2ccc3[nH]c(=O)ccc3c2)cnc1N (single isomer, unassigned) [Compound 763]        < 6.30
13  COc1ncc(NC(=O)C(=O)N2C[C@@H](C)CC[C@@H]2c2ccc(N)nc2)cc1C(N)=O (single isomer, unassigned) [Compound 460]        > 7.30
14  C[C@@H]1CC[C@@H](c2cccc(Cl)c2)N(C(=O)C(=O)Nc2cncc(C(N)=O)c2)C1 (single isomer, unassigned) [Compound 441]        < 6.30
15  Cc1cc(NC(=O)C(=O)N2C[C@@H](C)CC[C@@H]2c2ccc(NS(C)(=O)=O)cc2)cnc1N (single isomer, unassigned) [Compound 506]        < 6.30
16  Cc1cc(NC(=O)C(=O)N2C[C@@H](C)CC[C@@H]2c2ccc(C(F)(F)F)nc2)cnc1N (single isomer, unassigned) [Compound 1012]  6.30 to 7.30
17  CCc1cc(NC(=O)C(=O)N2C[C@H](C)CC[C@H]2c2ccc3cnccc3c2)cnc1N (single isomer, unassigned) [Compound 919]        > 7.30
18  C[C@H]1CC[C@H](c2ccc3[nH]ncc3c2F)N(C(=O)C(=O)Nc2cncc(C(N)=O)c2)C1 (single isomer, unassigned) [Compound 637]        < 6.30
19  CCc1cc(NC(=O)C(=O)N2C[C@@H](C)CC[C@@H]2c2ccc(N3CCN(C(C)C)CC3)c(C)c2)cnc1N (racemic) [Compound 1163]        > 7.30
20  C[C@@]1(F)CC[C@H](c2ccccc2)N(C(=O)C(=O)Nc2cncc(C(N)=O)c2)C1 (single isomer, unassigned) [Compound 795]  6.30 to 7.30
21  Cc1cc(NC(=O)C(=O)N2C[C@H](C)CC[C@H]2c2cc3[nH]ncc3s2)cnc1N (racemic) [Compound 743]  6.30 to 7.30
22  Cc1cc([C@H]2CC[C@H](C)CN2C(=O)C(=O)Nc2cncc(C(N)=O)c2)ccn1 (single isomer, unassigned) [Compound 534]  6.30 to 7.30
23  Cc1cc(NC(=O)C(=O)N2C[C@@H](C)CC[C@@H]2c2ccc3[nH]c(=O)ccc3c2)cnc1N (single isomer, unassigned) [Compound 762]        > 7.30
